Where do the numbers come from? From ChEMBL document CHEMBL2375359.

system: Streptococcus agalactiae; assay: Antibacterial activity against Streptococcus agalactiae at 80 ug/ml after 24 hrs by Oxford cup assay; assay type: functional; settings: read-out: IZ
measured endpoint: zone of inhibition at 80 µg/mL (mm)
Note: unit mm is implicit; provide only the numeric part.

Example entries begin here.
INSERT INTO assay_data (molecule_smiles, measured_endpoint, recorded_value) VALUES
  ('C=C[C@]1(C)C[C@@H](OC(=O)CSC(C)(C)CNC(=O)OCC(C)C)[C@]2(C)[C@H](C)CC[C@]3(CCC(=O)[C@H]32)[C@@H](C)[C@@H]1O', 'zone of inhibition at 80 µg/mL', 9.85),
  ('C=C[C@]1(C)C[C@@H](OC(=O)CSC(C)(C)CNC(=O)c2cccc(OC)c2)[C@]2(C)[C@H](C)CC[C@]3(CCC(=O)[C@H]32)[C@@H](C)[C@@H]1O', 'zone of inhibition at 80 µg/mL', 12.6);

Attention now turns to another entry.
Request: For the compound shown here, C=C[C@]1(C)C[C@@H](OC(=O)CSC(C)(C)CNC(=O)c2cccc(Cl)c2)[C@]2(C)[C@H](C)CC[C@]3(CCC(=O)[C@H]32)[C@@H](C)[C@@H]1O , give the reported zone of inhibition at 80 µg/mL.
Response: 10.4
